This collection of values is drawn from patent US20080125409A1.

Measurement Target: COX-1 (Ovis aries)
Construct: purchased Cayman Chemical Company 560101 and 560121
Sequence (P05979 25-600): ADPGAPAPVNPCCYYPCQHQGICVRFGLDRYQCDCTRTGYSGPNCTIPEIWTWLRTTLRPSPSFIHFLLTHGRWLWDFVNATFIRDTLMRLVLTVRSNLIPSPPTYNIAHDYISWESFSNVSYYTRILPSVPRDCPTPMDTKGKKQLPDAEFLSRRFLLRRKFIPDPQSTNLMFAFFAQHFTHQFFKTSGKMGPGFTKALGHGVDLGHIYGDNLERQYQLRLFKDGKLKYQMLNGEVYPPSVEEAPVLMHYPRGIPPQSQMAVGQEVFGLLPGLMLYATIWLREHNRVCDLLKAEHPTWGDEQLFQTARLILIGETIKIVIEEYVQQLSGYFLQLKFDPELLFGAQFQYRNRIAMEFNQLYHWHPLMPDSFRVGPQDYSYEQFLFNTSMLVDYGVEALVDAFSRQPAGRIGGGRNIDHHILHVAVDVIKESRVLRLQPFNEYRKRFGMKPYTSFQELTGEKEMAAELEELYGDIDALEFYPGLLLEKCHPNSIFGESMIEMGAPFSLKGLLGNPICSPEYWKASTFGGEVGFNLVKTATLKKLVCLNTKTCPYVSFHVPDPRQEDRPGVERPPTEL
Method: Cyclooxygenase-1 (COX-1) inhibitory effect (Cayman COX Inhibitor Screening Assay Kit, PGF2α ELISA)
Type: biochemical
Test Settings: in the presence of 50 μM of the compound; PGF2α production without compound regarded as 100%; read-out: COX inhibitory activity COX-1 (rate of COX-1 inhibition)
Measured Property: inhibition at 50 µM
Quick note: unit goes after the number.

COc1ccc(-n2nc(C(=O)N3CCN(C)CC3)nc2-c2ccc(C)cn2)cn1: -23.1%
COc1ccc(-n2nc(C(=O)NC(C)(C)C)nc2-c2cnc(C)cn2)cn1: -15.8%
COc1ccc(-n2nc(C(=O)N3CCC(F)(F)CC3)nc2-c2ccc(CO)cn2)cn1: 4.6%

Q: Query for COX-1 (Ovis aries): what inhibition at 50 µM does the record show for COc1ccc(-n2nc(C(=O)NC(C)(C)C)nc2-c2ccccn2)cn1 ?
Result: 7.5%

Q: COc1ccc(-n2nc(C(=O)NC(C)(C)C)nc2-c2ccc(C#N)cn2)cn1 , same question.
Result: 19.5%

Q: COc1ccc(-n2nc(C(=O)N3CCOCC3)nc2-c2ccc(C)cn2)cn1 , same question.
Result: 0.9%

Q: Cc1ccc(-c2nc(C(=O)NC(C)(C)C)nn2-c2ccc(C)nc2)nc1 , same question.
Result: -17.2%

Q: COc1ccc(-n2nc(C(=O)N3CCC[C@H]3CF)nc2-c2ccc(C)cn2)cn1 , same question.
Result: 6.6%
